Target: mouse melanocortin-5 receptor (mouse, UniProt P41149 1-325)
Sequence (P41149 whole entry): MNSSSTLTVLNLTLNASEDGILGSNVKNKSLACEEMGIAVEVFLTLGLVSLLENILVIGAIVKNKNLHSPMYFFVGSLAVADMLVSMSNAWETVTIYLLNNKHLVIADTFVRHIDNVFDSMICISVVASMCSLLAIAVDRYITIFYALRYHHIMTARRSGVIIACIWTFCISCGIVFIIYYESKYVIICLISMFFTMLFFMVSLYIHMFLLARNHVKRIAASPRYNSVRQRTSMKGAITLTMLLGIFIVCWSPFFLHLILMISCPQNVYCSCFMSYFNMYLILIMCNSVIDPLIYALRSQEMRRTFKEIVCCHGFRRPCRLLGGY
Assay: cell-based or functional assay
Square brackets hold non-standard residues; d marks the D form.
endpoint_label: inverse agonist, % decrease from basal cAMP (%)

# binder, number
records = [
    ("cyclo(PRFFVAF[dP]) [c[Pro-Arg-Phe-Phe-Val-Ala-Phe-DPro]]", -25),
]

I = PRFFXAFP (head-to-tail cyclic; DDap at 5; DPro at 8) [c[Pro-Arg-Phe-Phe-DDap-Ala-Phe-DPro]]
II = PRFFXAFP (head-to-tail cyclic; Dap at 5; DPro at 8) [c[Pro-Arg-Phe-Phe-Dap-Ala-Phe-DPro]]
*Q* Consider entries I and II . Which has the numerically lower inverse agonist, % decrease from basal cAMP? Indicate which entry you chose by stating its label.
*A* II

1 = cyclo(PRFFEAF[dP]) [c[Pro-Arg-Phe-Phe-Glu-Ala-Phe-DPro]]
2 = cyclo(PRFFAAF[dP]) [c[Pro-Arg-Phe-Phe-Ala-Ala-Phe-DPro]]
*Q* Consider entries 1 and 2 . Which has the numerically lower inverse agonist, % decrease from basal cAMP? Indicate which entry you chose by stating its label.
*A* 2
